Biological target: UniProt P55789
Sequence (P55789 whole entry): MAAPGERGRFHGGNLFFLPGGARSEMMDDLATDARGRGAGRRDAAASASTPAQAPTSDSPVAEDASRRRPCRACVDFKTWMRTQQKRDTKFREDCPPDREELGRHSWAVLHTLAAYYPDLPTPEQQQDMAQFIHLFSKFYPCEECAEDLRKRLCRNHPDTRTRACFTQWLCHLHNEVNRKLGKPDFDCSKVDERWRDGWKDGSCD
Experiment: inhibitors of human ALR sulfhydryl oxidase, dose response, biochemical, H2O2 detection, luminescence, cherry-pick (AID 493248)
The source made the active and inactive calls.
AC50 listing for selected molecules.
endpoint.label: AC50

[
  {
    "compound": "Cc1ccc(S(=O)(=O)N2CCN=C2SCc2cccnc2)cc1",
    "result": "46 nM (active)"
  },
  {
    "compound": "CC(C)=NNc1nc(-c2ccccc2)cs1",
    "result": "601 nM (active)"
  },
  {
    "compound": "Cc1cccc(-n2c(CCn3nc(C)c([N+](=O)[O-])c3C)n[nH]c2=S)c1",
    "result": "4300 nM (active)"
  },
  {
    "compound": "N#Cc1ccccc1CN1C(=O)S/C(=C/c2cccn2-c2ccc(C(=O)O)cc2)C1=O",
    "result": "86300 nM (active)"
  },
  {
    "compound": "Cc1noc(NS(=O)(=O)c2ccc(NC(=O)c3cnc4n(c3=O)CCS4)cc2)c1C",
    "result": "255 nM (active)"
  },
  {
    "compound": "SC1=NC2(CCCCC2)NN1c1ccccc1",
    "result": "1790 nM (active)"
  },
  {
    "compound": "Cn1c(S)nnc1CCNC(=O)OC(C)(C)C",
    "result": "2790 nM (active)"
  }
]

====

Target: Large T antigen (Simian virus 40);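 also: Confirmatory-stage PubChem screen for compounds that inhibit SV40 T antigen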
Sequence (P03070 whole entry): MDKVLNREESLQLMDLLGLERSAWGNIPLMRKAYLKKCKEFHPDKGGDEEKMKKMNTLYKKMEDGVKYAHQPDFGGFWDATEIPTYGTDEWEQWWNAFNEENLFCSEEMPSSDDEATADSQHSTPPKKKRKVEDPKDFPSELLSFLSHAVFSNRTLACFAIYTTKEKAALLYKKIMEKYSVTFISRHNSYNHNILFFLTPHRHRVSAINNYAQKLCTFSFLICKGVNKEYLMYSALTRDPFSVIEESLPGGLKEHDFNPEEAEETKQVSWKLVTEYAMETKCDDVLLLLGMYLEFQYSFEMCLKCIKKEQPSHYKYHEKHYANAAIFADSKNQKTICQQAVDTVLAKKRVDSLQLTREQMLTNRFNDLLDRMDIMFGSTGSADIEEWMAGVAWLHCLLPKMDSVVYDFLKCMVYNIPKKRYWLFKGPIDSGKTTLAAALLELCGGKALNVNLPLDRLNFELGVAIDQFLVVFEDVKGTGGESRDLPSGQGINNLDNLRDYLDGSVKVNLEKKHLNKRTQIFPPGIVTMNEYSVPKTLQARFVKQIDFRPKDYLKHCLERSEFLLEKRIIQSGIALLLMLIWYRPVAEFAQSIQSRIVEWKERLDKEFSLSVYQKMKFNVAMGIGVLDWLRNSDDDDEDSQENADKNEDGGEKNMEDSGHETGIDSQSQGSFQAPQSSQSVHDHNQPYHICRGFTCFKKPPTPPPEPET
Format: functional, Betapolyomavirus macacae
Activity calls are given as the source filed them.
endpoint.label: IC50

[
  {
    "compound": "COc1cc(SC#N)ccc1/N=C/c1c(C)[nH]n(-c2ccc(C)cc2C)c1=O",
    "result": "7.19 µM (active)"
  },
  {
    "compound": "O=S(=O)(O)c1cc(O)c2c(O)c(N=Nc3cc(Cl)ccc3O)c(S(=O)(=O)O)cc2c1",
    "result": "13.4 µM (active)"
  },
  {
    "compound": "Cc1nn(-c2ccccc2)c2nc(O)c(CNc3ccc(N4CCOCC4)cc3)cc12",
    "result": "5.01 µM (active)"
  },
  {
    "compound": "CC(C)C(C(=O)O)N1C(=O)/C(=C/C=C/c2ccco2)SC1=S (stereo not drawn)",
    "result": "24.6 µM (active)"
  },
  {
    "compound": "CCC[n+]1c2ccccc2cc2ccccc21",
    "result": "46.2 µM (active)"
  },
  {
    "compound": "C(=N\\c1ccc(Nc2ccccc2)cc1)/c1ccc2ccccc2c1",
    "result": "8.25 µM (active)"
  },
  {
    "compound": "CCOc1ccccc1N=C(S)N1CCN(c2ccc(O)cc2)CC1",
    "result": "6.28 µM (active)"
  },
  {
    "compound": "CCOC(=O)c1[nH]nc(-c2cc(CC)c(O)cc2O)c1-c1cscn1",
    "result": "20.6 µM (active)"
  }
]

====

Target: Nonstructural protein 1 (Influenza A virus, UniProt Q194T2)
Sequence (Q194T2 whole entry): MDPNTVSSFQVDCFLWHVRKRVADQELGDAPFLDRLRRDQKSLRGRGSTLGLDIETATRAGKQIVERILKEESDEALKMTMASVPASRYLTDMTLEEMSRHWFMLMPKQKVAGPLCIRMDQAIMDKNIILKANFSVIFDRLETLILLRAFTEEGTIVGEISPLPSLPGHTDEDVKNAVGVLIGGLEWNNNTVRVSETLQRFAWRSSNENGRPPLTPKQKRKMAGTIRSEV
Assay type: functional, Influenza A virus (A/California/07/2009(H1N1))
Activity calls are given as the source filed them.

[
  {
    "compound": "Cc1nn(-c2ccccc2)c2c1C(c1ccc(Br)s1)C(C#N)=C(N)O2 (stereo not drawn)",
    "experimental.target": "Nonstructural protein 1 (Influenza A virus, UniProt Q194T2)",
    "IC50": "76.2 µM (active)"
  },
  {
    "compound": "CCOC(=O)C1=C(C)N=c2s/c(=C/c3cccc([N+](=O)[O-])c3O)c(=O)n2C1c1ccccc1 (stereo not drawn)",
    "experimental.target": "Nonstructural protein 1 (Influenza A virus, UniProt Q194T2)",
    "IC50": "22.1 µM (active)"
  },
  {
    "compound": "Clc1ccc(-c2nnc(N3CCCC3)nn2)cc1",
    "experimental.target": "Nonstructural protein 1 (Influenza A virus, UniProt Q194T2)",
    "IC50": "> 100 µM (active)"
  }
]

====

Biological target: Streptokinase A (Streptococcus pyogenes serotype M1)
Sequence (P10520 whole entry): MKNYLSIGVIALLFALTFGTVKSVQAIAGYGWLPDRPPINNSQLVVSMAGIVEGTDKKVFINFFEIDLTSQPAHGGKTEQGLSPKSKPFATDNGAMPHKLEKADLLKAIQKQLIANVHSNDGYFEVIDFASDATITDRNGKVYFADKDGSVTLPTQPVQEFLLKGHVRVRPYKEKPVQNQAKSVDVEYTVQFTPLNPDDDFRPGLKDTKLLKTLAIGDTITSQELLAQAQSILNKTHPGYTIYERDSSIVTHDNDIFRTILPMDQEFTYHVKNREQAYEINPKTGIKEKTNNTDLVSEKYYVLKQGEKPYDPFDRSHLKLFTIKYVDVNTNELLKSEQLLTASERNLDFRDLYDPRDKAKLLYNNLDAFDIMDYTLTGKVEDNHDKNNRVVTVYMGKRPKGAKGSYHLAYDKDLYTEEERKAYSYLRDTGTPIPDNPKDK
Assay: S. pyogenes streptokinase expression inhibitors, potency, dose response, plasminogen activation absorbance, OD405 (AID 1914);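 also: secreted streptokinase activity via plasminogen activation per viability signal from cell pellet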
Format: functional, Streptococcus pyogenes M1 GAS
Activity calls are given as the source filed them.
endpoint.label: EC50

[
  {
    "compound": "C=CC(C)(C)c1c(O)c(CC=C(C)C)c(O)c2c(=O)c3ccc(O)c(O)c3oc12",
    "endpoint.label": "EC50",
    "result": "> 150 µM (not active)"
  },
  {
    "compound": "Cc1cccc(OCC(=O)Nc2ccccc2N2CCCCC2)c1C",
    "endpoint.label": "EC50",
    "result": "5.39 µM (active)"
  },
  {
    "compound": "COC(=O)c1ccc2[nH]c3cccc(/C(=C/c4ccccc4)c4ccccc4)c3c2c1",
    "endpoint.label": "EC50",
    "result": "1.43 µM (active)"
  },
  {
    "compound": "CCCCCCCCO/C(O)=C1\\C(C)=Nc2nnnn2C1c1cccs1 (centres undefined)",
    "endpoint.label": "EC50",
    "result": "> 50 µM (not active)"
  }
]

====

Let's look at some compounds and their measured EC50.
Test system: Streptococcus sp. 'group A'
Test: growth inhibition of control SK(-) GAS strain, dose response, counter-screen for streptokinase expression inhibitor project, luminescence, kanamycin, BacTiterGlo, confirmation (AID 1900)
Assay type: functional, organism-based
The source made the active and inactive calls.

[
  {
    "compound": "CC(=O)[C@@]1(O)C(C)CC2C3C=C(C)C4=Cc5c(cnn5-c5ccccc5)C[C@]4(C)C3C(O)C[C@@]21C (stereo partly drawn)",
    "EC50": "5570 nM (active)"
  },
  {
    "compound": "Cc1c(C(=O)NN=C(S)NCc2ccc(Cl)cc2)oc2ccccc12",
    "EC50": "7120 nM (active)"
  },
  {
    "compound": "Cc1ccc(-c2cnc(N)n2C)cc1C",
    "EC50": "3860 nM (active)"
  },
  {
    "compound": "C/C(=N/Nc1cc(-c2ccccc2)nc(-c2ccccc2)n1)c1ccc(O)cc1",
    "EC50": "1520 nM (active)"
  },
  {
    "compound": "CCc1ccc(NC2=NC(=O)/C(=C/c3cc(OC)c(O)c(OC)c3)S2)cc1",
    "EC50": "2670 nM (active)"
  },
  {
    "compound": "CSc1nc2cc(Cl)c(Oc3cccc(Cl)c3Cl)cc2[nH]1 [TRICLABENDAZOLE]",
    "EC50": "2260 nM (active)"
  },
  {
    "compound": "CC(C)(C)c1ccc(C(=O)N/N=C/c2ccccn2)cc1",
    "EC50": "9570 nM (active)"
  },
  {
    "compound": "Cc1ccc(NC(S)=NN=C(S)Nc2cccc(C(F)(F)F)c2)cc1",
    "EC50": "5240 nM (active)"
  },
  {
    "compound": "CS(=O)(=O)c1ccc2nc(NC(=O)c3ccc(NS(=O)(=O)c4ccc(F)c(F)c4)cc3)sc2c1",
    "EC50": "318 nM (active)"
  },
  {
    "compound": "O=S(=O)(Nc1ccc(O)c(Sc2nc3ccccc3s2)c1)c1cccc2ccccc12",
    "EC50": "4050 nM (active)"
  },
  {
    "compound": "O=C(COC(=O)c1ccccc1Br)Nc1nnc(-c2ccccc2)o1",
    "EC50": "834 nM (active)"
  },
  {
    "compound": "COc1ccc(S(=O)(=O)Nc2cc3c4c(oc3c3ccccc23)CC(C)(C)CC4=O)cc1",
    "EC50": "9620 nM (active)"
  },
  {
    "compound": "CCCn1c(NC(=O)c2ccc(Cl)c(S(=O)(=O)N3CCCC3)c2)nc2ccccc21",
    "EC50": "3140 nM (active)"
  },
  {
    "compound": "O=C(N/N=C/c1ccc([N+](=O)[O-])o1)c1ccc(NS(=O)(=O)c2cccs2)cc1",
    "EC50": "1240 nM (active)"
  },
  {
    "compound": "O=[N+]([O-])c1ccc(Cl)cc1Sc1nc2ccccc2o1",
    "EC50": "2250 nM (active)"
  },
  {
    "compound": "CC(C)c1ccc(OCC(=O)NNC(=S)NC(=O)C2CC2)cc1",
    "EC50": "850 nM (active)"
  },
  {
    "compound": "COc1ccc(S(=O)(=O)N[C@@H](C)C(=O)OCC(=O)Nc2cc3oc4ccccc4c3cc2OC)cc1",
    "EC50": "1390 nM (active)"
  },
  {
    "compound": "O=C(Oc1c(Cl)cc(Cl)c2cccnc12)c1cccs1",
    "EC50": "1470 nM (active)"
  }
]

Reference source for all entries: ChEMBL document CHEMBL1201862
